Where do the numbers come from? From PubChem BioAssay (NCI).

system: TK-10 renal; assay: NCI-60 one-dose screen, 48 h (100 = growth as untreated, 0 = no growth, -100 = all killed); conditions: 10 µM unless noted
This is part of a sample that, as a whole, favours compounds with a hit. Of some 83,000 tested, about 20% had one in any assay. The source made the active and inactive calls. Rule for the calls: active = growth percent below 10; inactive = the rest.
measured-quantity: growth

> print(dat)
                            structure.smiles          reported
 1  Cc1ccc(S(=O)(=O)Nn2c3c(cc(-c4nc5ccccc5s4)c2=O)CCCCCC3)cc1   111% (inactive)
 2  Cc1c(C(=O)NCCC(=O)NO)sc2ncnc(Nc3ccc(NC(=O)Nc4cccc(C(F)(F)F)c4)cc3)c12   140% (inactive)
 3    O=C(O)c1ccc2c(c1)C(=O)N(Cc1ccccc1)C2=O  91.1% (inactive)
 4  COc1cc2cc(Oc3cccc(NC(=O)Nc4cc(C(F)(F)F)cc(C(F)(F)F)c4)c3)c(C)nc2cc1OC  13.2% (inactive)
 5  c1ccc(Cn2cnc3ccc(-c4nc(-c5ccc6c(c5)ncn6C5CCCCC5)cn5ccnc45)cc32)cc1     5.2% (active)
 6  COc1ccc(CC(C)=C(c2ccc(OCCN3CCCCCC3)cc2)c2ccc(OCCN3CCCCCC3)cc2)cc1   -87.3% (active)
 7  CC(C)c1ccc(Nc2ccc3c(OCCCN4CCN(C)CC4)cccc3n2)cc1    91% (inactive)
 8                    COc1ccc(C(C)=O)c(OC)c1  99.5% (inactive)
 9             [O-][n+]1c(Cl)cc(Cl)c2ccccc21   125% (inactive)
10  Cc1cc(C)c(S(=O)(=O)Oc2ccccc2[N+](=O)[O-])c(C)c1  33.9% (inactive)

---

tested on: HCT-116 colon; test: NCI-60 one-dose screen, 48 h; settings: 10 µM unless noted
Compounds without any hit were thinned out: in the full panel of roughly 83,000, 20% have a hit. Active and inactive are the calls of the source. How the source made its calls: active means growth percent below 10; inactive means the rest.
Outcome codes: yes (active), no (inactive)

molecule	discrete-label
COc1ccc(NC(=O)c2cc(NCc3cc(O)ccc3O)ccc2O)cc1	no
O=C1Nc2cc(-c3ccc(NC(=O)C4CC4)cc3)ccc2/C1=C/c1ccc[nH]1	no
CCCCCCCCOc1ccc(/C=N/Nc2cc(C)nc3ccc(Br)cc23)cc1	yes
COc1ccc(-c2cnc3c(-c4cccc5ncccc45)cnn3c2)cc1	no
COc1ccc(C(=O)c2cc(OC)c(OC)c(OC)c2)cc1O	yes
C=C(C)[C@@H]1CC[C@]2(C(=O)N3CCN(C)CC3)CC[C@]3(C)[C@H](CC[C@@H]4[C@@]5(C)C/C(=C/c6ccncc6)C(=O)C(C)(C)[C@@H]5CC[C@]43C)[C@@H]12	no
COc1cc(/C=N/NC(=O)c2cnn3c2NC(c2ccccc2)C3)ccc1Oc1ccccc1 (stereo not drawn)	yes
O=C(CCN1CCCC1)Nc1ccc2c(NCCCCc3ccccc3)c3ccccc3nc2c1	yes
COc1ccc(/C=C/c2nc(Nc3ccc(Cl)cc3)c3ccccc3n2)cc1	no
NC(=S)N1N=C(c2ccccc2)CC1c1cn(-c2ccccc2)nc1-c1ccc(OCc2ccccc2)cc1 (stereo not drawn)	no
N=C1C(c2nc3ccccc3s2)=C(O)CN1c1cc(Cl)cc(Cl)c1	no
CC(C)(C)[Si](C)(C)OC1[C@@H](O[Si](C)(C)C(C)(C)C)[C@@H](CNC(=O)NC(=O)CCl)O[C@H]1n1cnc2c(NC(=O)Nc3ccccc3)ncnc21 (stereo partly drawn)	yes
CCN1C(=O)/C(=C/C(=O)OC)S/C1=N\NC(=O)c1cc2ccc1/C=C\c1ccc(cc1)/C=C\2	no
Cc1ccc(CNc2c3ccccc3nc3cc(NC(=O)CCN4CCCC4)ccc23)cc1	yes
c1ccc2c(-c3c[nH]c4ccccc34)c3c(cc2c1)[nH]c1ccccc13	no
COc1ccc(C(=O)Cn2c(C(=O)c3ccccc3)nc3ccccc32)cc1	no
COc1ccc(-c2[nH][nH]c(=O)c2-c2nc3ccccc3s2)cc1	no
CCOC(=O)c1cc(C(=O)c2ccc(OC)c(OC)c2)n2c1ccc1ccccc12	no
N#CC1=C(/N=C/c2ccccc2)Oc2c(ccc3ccccc23)C1c1ccc([N+](=O)[O-])cc1 (stereo not drawn)	no
N#C/C(=C\c1ccc(C(F)(F)F)cc1)c1cc2ccccc2[nH]1	no
O=C(/C(=C\c1ccc([N+](=O)[O-])cc1)S(=O)Cc1ccc(Cl)cc1)c1ccc(Cl)cc1 (stereo not drawn)	yes
Cc1nc2ccc(Cl)cn2c1-c1nnc(SCc2ccc([N+](=O)[O-])cc2)o1	no
CN1CCN(CCNc2nccc(-c3c(-c4cccc(O)c4)nc4sccn34)n2)S1(=O)=O	no
Fc1ccc2c(-c3cncn3CCc3ccccc3)c[nH]c2c1	no
CCN1Cc2nc3sc(C)c(C)c3c(=O)n2C=C1C	yes
COc1ccc(C(=O)c2cc(C)c(OC)c(C)c2)c(OC)c1OC(=O)C(Cl)Cl	yes
COc1ccc(N2CCN(c3ccc(NC4=C(Cl)C(=O)c5ncccc5C4=O)cc3)CC2)cc1	no
CC(=O)N1N=C(c2ccc(-n3ccc(C(F)(F)F)n3)c(F)c2)CC1c1ccc[nH]1 (stereo not drawn)	no
Cc1cc(C(=O)/C=C/c2ccc[nH]2)ccc1-n1ccc(C(F)(F)F)n1	no
c1ccc(-c2c(-c3ccccc3)[n+](Cc3ccc4ccccc4c3)c(-c3cccc4ccccc34)n2Cc2ccc3ccccc3c2)cc1	yes
O=S(=O)(NCCCNc1nccc(-c2c(-c3cccc(F)c3)nc3sccn23)n1)c1cccc(F)c1	no
CC1=C(C(=O)/C=C/c2ccc(N(C)C)cc2)C(c2ccccc2)NC(=S)N1 (stereo not drawn)	no
Cc1ccc(S(=O)(=O)Nn2c3c(cc(-c4nc5ccccc5s4)c2=O)CCCCCC3)cc1	no
O=S(=O)(NCCCNc1nccc(-c2c(-c3cccc(F)c3)nc3sccn23)n1)c1cccc2ccccc12	no
O=C1Nc2cc(-c3ccc(NS(=O)(=O)c4ccccc4)cc3)ccc2/C1=C/c1ccc[nH]1	no
CSc1nc2sc3cccc(Cl)c3n2c(=N)c1C#N	no
COc1cc2nc(-c3ccc(C(F)(F)F)cc3)cc(OCCCN3CCOCC3)c2cc1OC	no
Cc1ccc(C(=O)/C(=C/c2ccc([N+](=O)[O-])cc2)SCc2ccc(Cl)cc2)cc1	yes

---

Tested on: MDA-MB-231 breast
Assay: NCI-60 one-dose screen, 48 h (100 = growth as untreated, 0 = no growth, -100 = all killed)
Conditions: 10 µM unless noted
Description: Cells are grown in 96 well plates and exposed to the test compound for 48 hours. Compounds are tested at a single concentration, which is 10^-5 M for most compounds. The reported endpoint is percent growth (GI% or GIPRCNT), where numbers from 0 - 100% represent growth inhibition, and numbers from -100% - 0 represent cell death. For example, a value of 40 represents 60% growth inhibition. A value of 0 means no net growth occurred over the course of the experiment. […]
About 83,000 compounds went through this panel and 20% of them were active in at least one assay; those are over-represented in the sample as a whole.
measured-quantity: growth (%)

> print(dat)
                           structure.smiles  reported
1  O=C(Cn1c(C(=O)c2ccccc2)nc2ccccc21)c1ccc(F)cc1      46.7
2  O=C1Nc2ccccc2/C1=C\c1c(-c2ccccc2)nc2ccccn12      59.2
3  COc1ccc(-c2nc3sccn3c2/C=C/C(=O)c2ccc3c(c2)OCO3)cc1      76.3
4  C/C(=N\NC(=O)CSc1nc2ccccc2c(=O)n1Cc1ccc(S(N)(=O)=O)cc1)c1ccc(F)cc1       101
5  COc1ccc(-c2nc([C@@H](C)Sc3nc(N)cc(N)n3)c(C)s2)cc1OCCN1CCOCC1      66.6
6  COc1cc2oc(-c3cccc(C(=O)Nc4ccccc4)c3)cc(=O)c2c(O)c1OC      76.3
7  CN1CCN(c2ccc(NC3=C(Cl)C(=O)c4ncccc4C3=O)cc2C(F)(F)F)CC1      4.49
8  Cc1cccc(-c2cn3ccnc3c(-c3ccc4ncn(Cc5ccccc5)c4c3)n2)c1      71.6
9  CC1(C)NCCC[C@]2(C)[C@H]3CC[C@@H]4[C@H]5[C@H](C(=O)/C=C/c6ccco6)CC[C@]5(CO)CC[C@@]4(C)[C@]3(C)CC[C@@H]12      96.2

---

tested on: UACC-62 melanoma; assay: NCI-60 one-dose screen, 48 h (100 = growth as untreated, 0 = no growth, -100 = all killed); settings: 10 µM unless noted
This is part of a sample that, as a whole, favours compounds with a hit. Of some 83,000 tested, about 20% had one in any assay.
The label is class 1 for growth below 70% and class 0 for growth equal to or exceeding 70%.

> print(dat)
                                   compound  discrete.label
1  O=[N+]([O-])CC(c1ccccc1F)c1c[nH]c2ccccc12 (stereo not given)         class 1
2  Cc1c(C(=O)NCCC(=O)NO)sc2ncnc(Nc3ccc(NC(=O)Nc4cccc(C(F)(F)F)c4)cc3)c12         class 0
3            CCN(CC)c1ccc(C(=O)c2ccccc2)cc1         class 0
